Where these numbers come from: paper PMC7730235

- target.of.assay: TEC (Homo sapiens, UniProt P42680)
- Construct: purchased Reaction Biology Corporation
- Sequence (P42680 whole entry): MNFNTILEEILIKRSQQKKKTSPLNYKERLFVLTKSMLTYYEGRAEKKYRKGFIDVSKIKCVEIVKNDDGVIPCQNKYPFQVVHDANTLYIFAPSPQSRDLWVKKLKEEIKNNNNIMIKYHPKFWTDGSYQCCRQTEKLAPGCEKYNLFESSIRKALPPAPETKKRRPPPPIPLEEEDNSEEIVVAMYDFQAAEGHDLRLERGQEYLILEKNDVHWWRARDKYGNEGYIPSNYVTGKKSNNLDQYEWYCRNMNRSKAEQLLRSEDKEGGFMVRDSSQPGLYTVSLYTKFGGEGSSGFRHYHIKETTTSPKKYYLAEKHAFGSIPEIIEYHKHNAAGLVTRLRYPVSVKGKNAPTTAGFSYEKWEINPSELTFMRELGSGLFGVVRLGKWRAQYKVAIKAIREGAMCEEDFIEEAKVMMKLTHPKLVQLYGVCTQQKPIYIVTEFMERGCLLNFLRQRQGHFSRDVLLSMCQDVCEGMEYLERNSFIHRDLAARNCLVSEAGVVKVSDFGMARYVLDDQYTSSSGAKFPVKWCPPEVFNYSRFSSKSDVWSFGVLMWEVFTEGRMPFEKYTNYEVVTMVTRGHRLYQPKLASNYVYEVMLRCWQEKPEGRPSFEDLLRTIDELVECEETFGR
- measurement.description: Radiometric kinase assay (Reaction Biology HotSpot)
- Type: biochemical
- measurement.context: 200 nM compound, duplicate mean, [ATP] = 10 μM; read-out: Residual Activity @ 200 nM, TEC
Hi there, I'd appreciate the recorded remaining activity at 0.2 µM for every entry that follows.
One number for each entry, in %.

Examples from the recorded data:
compound	meas.value
CCC(=O)Nc1cccc(-c2c[nH]c3ncc(NC(=O)C4CCCC4)cc23)c1 [Compound 12b]	99.2
C=CC(=O)Nc1cccc(-c2c[nH]c3ncccc23)c1	37.1
C=CC(=O)Nc1cccc(-c2c[nH]c3ncc(NC(=O)c4cccs4)cc23)c1 [Compound 12c]	17.2

Okay, next one:
Entry C=CC(=O)Nc1cccc(-c2c[nH]c3ncc(C(N)=O)cc23)c1 [Compound 10a] has what remaining activity at 0.2 µM?
42.1

====

Hi there, I'd appreciate the recorded ΔTm at 10 µM for every entry that follows.
- target.of.assay: kinase domain of JAK3 (Homo sapiens)
- Construct: The kinase domains of JAK3 and BMX at 2 μM; made in house
- Sequence (P52333 822-1111 limits assumed): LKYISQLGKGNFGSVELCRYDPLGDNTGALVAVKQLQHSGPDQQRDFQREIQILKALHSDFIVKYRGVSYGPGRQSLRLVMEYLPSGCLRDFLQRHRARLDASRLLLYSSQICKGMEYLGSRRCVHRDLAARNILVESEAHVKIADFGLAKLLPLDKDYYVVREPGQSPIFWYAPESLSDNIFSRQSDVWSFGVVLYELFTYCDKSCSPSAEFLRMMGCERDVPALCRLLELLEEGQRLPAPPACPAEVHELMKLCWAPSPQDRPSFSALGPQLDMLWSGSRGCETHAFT
- measurement.description: Thermal shift (ΔTm) assay
- Format: binding
- measurement.context: 2 μM kinase domain, 10 μM inhibitor; mean ± SD of at least three measurements
Give bare numbers, in °C.

Examples from the recorded data:
molecule	unit.abbrev	ΔTm at 10 µM
C=CC(=O)Nc1cccc(-c2c[nH]c3ncc(NC(C)=O)cc23)c1 [Compound 12f]	°C	13.4
C=CC(=O)Nc1cccc(-c2c[nH]c3ncc(C(=O)NCC4CCCCC4)cc23)c1 [Compound 11f]	°C	5.54
C=CC(=O)Nc1cccc(-c2c[nH]c3ncc(NC(=O)Cc4ccccc4)cc23)c1 [Compound 12h]	°C	12.1

Required: ΔTm at 10 µM, one value per molecule below.
1. C=CC(=O)Nc1cccc(-c2c[nH]c3ncc(C(=O)NCc4ccccc4)cc23)c1 [Compound 11g]
2. C=CC(=O)Nc1cccc(-c2c[nH]c3ncc(NC(=O)CC4CCCC4)cc23)c1 [Compound 12g]

[8.29, 11.9]

Entry C=CC(=O)Nc1cccc(-c2c[nH]c3ncc(C(=O)NC)cc23)c1 [Compound 11c] has what ΔTm at 10 µM?
10.3

====

The reader will find IC50 measurements below, all made with HER4 (Homo sapiens).
Sequence (Q15303 26-1308): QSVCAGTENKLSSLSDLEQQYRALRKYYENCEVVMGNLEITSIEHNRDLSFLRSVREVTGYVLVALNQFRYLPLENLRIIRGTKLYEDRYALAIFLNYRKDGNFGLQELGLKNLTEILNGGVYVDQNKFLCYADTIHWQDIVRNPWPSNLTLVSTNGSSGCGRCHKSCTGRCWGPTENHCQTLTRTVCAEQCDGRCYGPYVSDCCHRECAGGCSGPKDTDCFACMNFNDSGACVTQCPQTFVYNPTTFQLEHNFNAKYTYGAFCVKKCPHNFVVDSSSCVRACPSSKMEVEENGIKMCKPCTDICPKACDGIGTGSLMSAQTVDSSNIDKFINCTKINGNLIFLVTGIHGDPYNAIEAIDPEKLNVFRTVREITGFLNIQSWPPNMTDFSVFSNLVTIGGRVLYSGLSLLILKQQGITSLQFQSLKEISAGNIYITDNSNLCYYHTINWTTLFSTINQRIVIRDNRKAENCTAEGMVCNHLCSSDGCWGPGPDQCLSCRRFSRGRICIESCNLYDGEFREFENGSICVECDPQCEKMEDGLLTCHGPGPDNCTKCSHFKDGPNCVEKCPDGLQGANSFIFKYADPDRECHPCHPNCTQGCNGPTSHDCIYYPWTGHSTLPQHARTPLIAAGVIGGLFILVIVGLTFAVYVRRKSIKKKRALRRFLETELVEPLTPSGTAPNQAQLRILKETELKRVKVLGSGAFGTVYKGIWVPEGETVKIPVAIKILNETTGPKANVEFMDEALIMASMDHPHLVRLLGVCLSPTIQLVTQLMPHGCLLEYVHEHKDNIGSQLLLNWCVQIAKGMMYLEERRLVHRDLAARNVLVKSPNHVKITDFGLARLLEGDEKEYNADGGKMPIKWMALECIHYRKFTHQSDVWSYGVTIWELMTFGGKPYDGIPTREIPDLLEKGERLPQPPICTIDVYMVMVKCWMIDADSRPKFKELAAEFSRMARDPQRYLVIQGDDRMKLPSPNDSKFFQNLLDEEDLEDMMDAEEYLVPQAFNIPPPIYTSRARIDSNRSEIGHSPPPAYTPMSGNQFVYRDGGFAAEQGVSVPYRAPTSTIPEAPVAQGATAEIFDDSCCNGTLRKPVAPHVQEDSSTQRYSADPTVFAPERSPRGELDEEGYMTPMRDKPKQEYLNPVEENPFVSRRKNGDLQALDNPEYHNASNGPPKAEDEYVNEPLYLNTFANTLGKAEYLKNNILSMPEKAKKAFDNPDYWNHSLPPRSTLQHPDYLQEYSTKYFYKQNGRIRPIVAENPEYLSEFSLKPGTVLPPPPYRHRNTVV
One number for each entry, in nM.

compound	unit.abbrev	IC50
C=CC(=O)Nc1cccc(-c2c[nH]c3ncc(NC(=O)c4cccs4)cc23)c1 [Compound 12c]	nM	8.5

Okay, next one:
Quick check: IC50 on HER4 (Homo sapiens), item C=CC(=O)Nc1cccc(-c2c[nH]c3ncc(NC(=O)C4CCCC4)cc23)c1 [Compound 12a] ?
106

====

- target.of.assay: EGFR (Homo sapiens)
- Construct: purchased Reaction Biology Corporation
- Sequence (P00533 25-1210): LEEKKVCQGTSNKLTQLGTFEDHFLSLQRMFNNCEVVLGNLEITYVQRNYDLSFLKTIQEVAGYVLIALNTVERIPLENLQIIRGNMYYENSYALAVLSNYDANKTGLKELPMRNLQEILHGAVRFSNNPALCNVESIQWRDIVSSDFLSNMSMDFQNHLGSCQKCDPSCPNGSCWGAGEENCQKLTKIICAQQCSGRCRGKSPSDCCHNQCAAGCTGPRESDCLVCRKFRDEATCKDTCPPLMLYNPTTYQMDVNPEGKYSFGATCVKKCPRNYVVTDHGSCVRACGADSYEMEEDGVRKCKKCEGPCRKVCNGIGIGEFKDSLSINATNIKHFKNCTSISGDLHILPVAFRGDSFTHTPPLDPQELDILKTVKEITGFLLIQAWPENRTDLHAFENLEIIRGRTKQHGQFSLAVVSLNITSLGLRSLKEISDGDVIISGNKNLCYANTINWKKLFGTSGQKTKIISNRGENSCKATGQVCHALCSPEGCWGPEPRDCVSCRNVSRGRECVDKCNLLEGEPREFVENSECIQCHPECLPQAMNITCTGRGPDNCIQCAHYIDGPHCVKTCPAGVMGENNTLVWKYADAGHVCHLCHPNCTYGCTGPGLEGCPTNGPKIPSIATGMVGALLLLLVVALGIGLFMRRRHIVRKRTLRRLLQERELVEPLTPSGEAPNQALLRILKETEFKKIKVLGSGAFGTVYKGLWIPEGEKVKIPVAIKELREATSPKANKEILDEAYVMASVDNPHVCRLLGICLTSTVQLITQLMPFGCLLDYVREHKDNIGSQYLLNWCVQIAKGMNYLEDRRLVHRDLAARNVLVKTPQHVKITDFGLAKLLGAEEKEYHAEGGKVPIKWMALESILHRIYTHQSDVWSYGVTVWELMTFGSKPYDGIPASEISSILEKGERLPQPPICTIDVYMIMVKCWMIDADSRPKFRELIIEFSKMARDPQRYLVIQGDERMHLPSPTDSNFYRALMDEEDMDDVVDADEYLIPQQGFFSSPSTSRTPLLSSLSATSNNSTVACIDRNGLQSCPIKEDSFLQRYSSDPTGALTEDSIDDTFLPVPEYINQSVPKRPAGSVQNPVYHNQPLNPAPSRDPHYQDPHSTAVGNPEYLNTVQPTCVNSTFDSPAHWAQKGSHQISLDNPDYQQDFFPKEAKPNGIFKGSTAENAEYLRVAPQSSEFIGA
- measurement.description: Radiometric kinase assay (Reaction Biology HotSpot)
- Type: biochemical
- measurement.context: 200 nM compound, duplicate mean, [ATP] = 10 μM; read-out: Residual Activity @ 200 nM, EGFR
assay.readout: remaining activity at 0.2 µM (%)
Answers are plain numbers, in %.

compound	meas.value
C=CC(=O)Nc1cccc(-c2c[nH]c3ncc(C(N)=O)cc23)c1 [Compound 10a]	95.5

Entry C=CC(=O)Nc1cccc(-c2c[nH]c3ncc(NC(=O)c4cccs4)cc23)c1 [Compound 12c] has what remaining activity at 0.2 µM?
14.9
